Consider the following compounds; for each one, report its IC50.
# experimentalSystem: HPPD (p-hydroxyphenylpyruvate dioxygenase) (Arabidopsis thaliana, UniProt P93836)
# Construct: gene HPD; recombinant, overexpressed in E. coli, tested in total soluble protein extract; 1SP9 given only as docking structure
# Sequence (P93836 whole entry): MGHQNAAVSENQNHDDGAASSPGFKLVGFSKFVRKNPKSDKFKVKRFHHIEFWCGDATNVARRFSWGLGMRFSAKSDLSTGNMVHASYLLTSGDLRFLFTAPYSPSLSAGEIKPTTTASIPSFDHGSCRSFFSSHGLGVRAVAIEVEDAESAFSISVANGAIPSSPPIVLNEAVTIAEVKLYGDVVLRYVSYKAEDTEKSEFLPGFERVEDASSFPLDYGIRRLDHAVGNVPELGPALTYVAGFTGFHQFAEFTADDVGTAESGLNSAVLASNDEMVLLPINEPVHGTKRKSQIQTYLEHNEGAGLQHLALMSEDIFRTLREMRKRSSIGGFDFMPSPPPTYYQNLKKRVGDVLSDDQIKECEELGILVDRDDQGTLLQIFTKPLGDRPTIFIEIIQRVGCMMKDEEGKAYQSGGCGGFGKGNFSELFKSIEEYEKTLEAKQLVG
# experimentSummary: HPLC of homogentisate formed ([…] nm), dose-response
# Format: biochemical
# protocolConditions: read-out: I50 (μM) ^ab
One number for each entry, in µM.

Below are worked cases with known answers.
>>> print(df.to_string())
                                   compound  testvalue
0            CCCCCC(=O)C1C(=O)CC(C)(C)CC1=O       4.17
1                      CC(=O)C1C(=O)CCCC1=O       23.1
2  COc1cc(CCC(=O)C2C(=O)CC(C)(C)CC2=O)cc(OC)c1OC [14d]       2.29
3  COc1ccc(C=CC(=O)C2C(=O)CC(C)(C)CC2=O)cc1 [11d]        141
4  CCCCCC(=O)C1=C(O)C(O)CCC1=O (stereo not shown)       15.8
5  O=C(C=Cc1cccc(Br)c1)C1C(=O)CCCC1=O [18a]       0.82
6     Cc1ccccc1C=CC(=O)C1C(=O)CC(C)(C)CC1=O       28.7
7  CCCCCCCCCCCC(=O)C1=C(O)C(O)CCC1=O (stereo not shown)       0.18

# map each compound to its IC50
1. CCCCCCCCCC(=O)C1=C(O)C(O)CCC1=O (stereo not shown)
2. COc1ccc(CCC(=O)C2C(=O)CC(C)(C)CC2=O)cc1OC [12d]
3. CCCCCCCCCC(=O)C1C(=O)CC(C)(C)CC1=O

Output:
1. 1.25
2. 8.69
3. 2.66
